Data origin, for the record: ChEMBL document CHEMBL1681721

- test: Selectivity index, ratio of IC50 for CHO cells to IC50 for chloroquine-sensitive Plasmodium falciparum D10
- Format: toxicity, cell-based
- applied_conditions: hamster, CHO cells; read-out: Selectivity Index
# reported selectivity ratio; entries follow
Output spec: single numeric token, no unit.

Input line: Look up selectivity ratio of C[C@H]1[C@@H](OCCNc2ccc(Nc3ccnc4cc(Cl)ccc34)cc2)O[C@@H]2O[C@@]3(C)CC[C@H]4[C@H](C)CC[C@@H]1[C@@]24OO3.O=C(O)C(=O)O and report it.
Output line: 2040

----------
- test: Selectivity index, ratio of IC50 for CHO cells to IC50 for chloroquine-sensitive Plasmodium falciparum D10
- Format: toxicity, cell-based
- applied_conditions: hamster, cho
Note to self: values exactly at 80 are Fulfilled. So Selectivity Index at or above 80 is Fulfilled, below is Not fulfilled.

Use these answered entries as a reference point.
# molecule, group
data = [
    ("C[C@H]1[C@@H](OCCNCCCNc2ccnc3cc(Cl)ccc23)O[C@@H]2O[C@@]3(C)CC[C@H]4[C@H](C)CC[C@@H]1[C@@]24OO3", "Fulfilled"),
    ("C[C@H]1[C@@H](OCCNCCCNc2ccnc3cc(Cl)ccc23)O[C@@H]2O[C@@]3(C)CC[C@H]4[C@H](C)CC[C@@H]1[C@@]24OO3.O=C(O)C(=O)O", "Not fulfilled"),
    ("CC(CNc1ccnc2cc(Cl)ccc12)NCCO[C@H]1O[C@@H]2O[C@@]3(C)CC[C@H]4[C@H](C)CC[C@@H]([C@H]1C)[C@@]24OO3.O=C(O)C(=O)O (stereo not given in full)", "Fulfilled"),
    ("C[C@H]1[C@@H](OCCNCCNc2ccnc3cc(Cl)ccc23)O[C@@H]2O[C@@]3(C)CC[C@H]4[C@H](C)CC[C@@H]1[C@@]24OO3.O=C(O)C(=O)O", "Not fulfilled"),
]

Lab note: next molecule to report on.
Input line: Does C[C@H]1[C@@H](OCCNCCNc2ccnc3cc(Cl)ccc23)O[C@@H]2O[C@@]3(C)CC[C@H]4[C@H](C)CC[C@@H]1[C@@]24OO3 have a reported Selectivity Index of at least 80?
Output line: Fulfilled

----------
- Tested on: CHO
- test: Cytotoxicity against CHO cells by MTT assay
- Assay type: cell-based, Cricetulus griseus
- applied_conditions: Cricetulus griseus, CHO
IC50 listing for selected molecules.

# molecule, result
rows = [
    ("CC[C@H]1CN2CCc3cc(OC)c(OC)cc3[C@@H]2C[C@@H]1C[C@H]1NCCc2cc(OC)c(OC)cc21 [EMETINE]", "190 nM"),
    ("C[C@H]1[C@@H](OCCN2CCN(c3ccnc4cc(Cl)ccc34)CC2)O[C@@H]2O[C@@]3(C)CC[C@H]4[C@H](C)CC[C@@H]1[C@@]24OO3", "5920 nM"),
    ("C[C@H]1[C@@H](OCCNc2ccc(Nc3ccnc4cc(Cl)ccc34)cc2)O[C@@H]2O[C@@]3(C)CC[C@H]4[C@H](C)CC[C@@H]1[C@@]24OO3.O=C(O)C(=O)O", "35200 nM"),
    ("C[C@H]1[C@@H](OCCN2CCN(CCNc3ccnc4cc(Cl)ccc34)CC2)O[C@@H]2O[C@@]3(C)CC[C@H]4[C@H](C)CC[C@@H]1[C@@]24OO3.O=C(O)C(=O)O", "2320 nM"),
]

Next molecule, IC50 to be filled in.
Input line: For the molecule CC(CNc1ccnc2cc(Cl)ccc12)NCCO[C@H]1O[C@@H]2O[C@@]3(C)CC[C@H]4[C@H](C)CC[C@@H]([C@H]1C)[C@@]24OO3.O=C(O)C(=O)O (stereo not given in full) , report IC50.
Output line: 2750 nM
